The values you see were collected from patent US20170355757A1.

ASSAYED_TARGET: T1, monkey C5-mmh (monkey, UniProt P01031 19-1676 (human entry), limits assumed)
T1 construct: Recombinant monkey C5 with a C-terminal myc-myc-hexahistidine tag
T1 chain: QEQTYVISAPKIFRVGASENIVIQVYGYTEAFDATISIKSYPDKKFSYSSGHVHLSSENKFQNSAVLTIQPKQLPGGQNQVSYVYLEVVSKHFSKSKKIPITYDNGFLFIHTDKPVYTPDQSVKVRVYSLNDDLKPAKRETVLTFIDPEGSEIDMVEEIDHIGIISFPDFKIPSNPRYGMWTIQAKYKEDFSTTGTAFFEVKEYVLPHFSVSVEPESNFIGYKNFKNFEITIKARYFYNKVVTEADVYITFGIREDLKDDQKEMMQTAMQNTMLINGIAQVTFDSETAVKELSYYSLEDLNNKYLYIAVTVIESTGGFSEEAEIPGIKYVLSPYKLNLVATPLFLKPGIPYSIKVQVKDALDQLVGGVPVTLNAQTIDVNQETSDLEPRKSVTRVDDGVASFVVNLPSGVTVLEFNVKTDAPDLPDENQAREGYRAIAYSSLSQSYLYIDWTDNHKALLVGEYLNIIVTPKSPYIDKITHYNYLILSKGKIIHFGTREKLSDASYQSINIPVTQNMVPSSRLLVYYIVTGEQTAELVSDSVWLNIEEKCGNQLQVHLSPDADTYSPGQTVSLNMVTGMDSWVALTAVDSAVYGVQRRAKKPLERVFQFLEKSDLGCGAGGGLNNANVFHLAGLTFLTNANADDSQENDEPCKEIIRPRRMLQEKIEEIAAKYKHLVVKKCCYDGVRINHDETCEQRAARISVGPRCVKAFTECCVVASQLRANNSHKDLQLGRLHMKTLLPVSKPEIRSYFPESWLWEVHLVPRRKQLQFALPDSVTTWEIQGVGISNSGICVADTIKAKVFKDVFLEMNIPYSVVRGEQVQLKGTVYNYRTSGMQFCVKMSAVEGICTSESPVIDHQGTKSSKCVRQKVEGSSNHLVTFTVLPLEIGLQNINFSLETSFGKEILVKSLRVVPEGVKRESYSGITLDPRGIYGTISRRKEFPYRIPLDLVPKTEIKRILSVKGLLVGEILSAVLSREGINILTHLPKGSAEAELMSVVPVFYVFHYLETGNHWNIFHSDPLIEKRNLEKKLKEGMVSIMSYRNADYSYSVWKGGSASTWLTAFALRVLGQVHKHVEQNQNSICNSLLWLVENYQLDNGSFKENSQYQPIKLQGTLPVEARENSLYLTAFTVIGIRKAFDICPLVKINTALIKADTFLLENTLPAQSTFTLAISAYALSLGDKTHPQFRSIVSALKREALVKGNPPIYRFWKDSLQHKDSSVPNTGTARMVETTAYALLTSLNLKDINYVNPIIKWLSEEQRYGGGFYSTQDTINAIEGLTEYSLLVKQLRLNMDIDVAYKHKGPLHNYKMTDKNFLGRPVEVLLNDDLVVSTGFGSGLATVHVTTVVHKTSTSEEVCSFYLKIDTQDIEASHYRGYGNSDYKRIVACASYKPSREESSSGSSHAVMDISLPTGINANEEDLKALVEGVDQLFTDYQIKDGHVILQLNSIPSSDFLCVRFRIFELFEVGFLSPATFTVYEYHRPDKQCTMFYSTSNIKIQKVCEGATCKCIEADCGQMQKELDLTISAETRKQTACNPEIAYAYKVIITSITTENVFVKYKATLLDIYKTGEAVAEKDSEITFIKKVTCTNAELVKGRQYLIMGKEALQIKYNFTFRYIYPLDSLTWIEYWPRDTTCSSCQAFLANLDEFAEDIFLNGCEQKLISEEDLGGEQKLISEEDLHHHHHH
EXPERIMENT_DESCRIPTION: SPR, mAb captured via anti-hFc, 37C
Give measured koff for each item. Keep answers brief.

A selection of reference data follows.
{"BINDER": "H4H12166P5 (antibody, human IgG4, V domains shown, Histidine-mutated CDR variant of H4H12166P; human IgG4 Fc with S108P) VH: QVQLQESGPGLVKPSETLSLTCTVSGDSVSSSYWTWIRQPPGKGLEWIGYIYYSGSSNYNPSLKSRATISVDTSKNQFSLKLSSVTAADTAVYYCAREGNVDTTMIHDYWGQGTLVTVSS VL: AIQMTQSPSSLSASVGDRVTITCRASQGIRNDLGWYQQKPGKAPKLLIYAASSLQSGVPSRFAGRGSGTDFTLTISSLQPEDFATYYCLQDFNYPWTFGQGTKVEIK", "ASSAY_VALUE": "0.00313 s⁻¹"}
{"BINDER": "H4H12171P (antibody, human IgG4, V domains shown, Human IgG4 Fc with S108P hinge mutation (H4H)) VH: EVQLVESGGGVVRPGGSLRLSCAASGFTFDEYGMTWVRQVPGKGLEWVSGITWNGGFTDYTDSVKGRFTSSRDNAKNSLYLQMNSLRAEDTALYYCARDGYSSSWGAYDIWGQGTMVTVSS VL: DIQMTQSPSSLSASVGDRVTITCRASQSISTYLNWYQQKPGKAPKLLIYAASSLQSGVPLRFSGSGSGTDFTLTISSLQPEDFASYFCQQSYSTPYTFGQGTKLEIK", "ASSAY_VALUE": "0.00103 s⁻¹"}

// next entry
Query: Any idea what koff was measured for H4H12166P9 (antibody, human IgG4, V domains shown, Histidine-mutated CDR variant of H4H12166P; human IgG4 Fc with S108P) VH: QVQLQESGPGLVKPSETLSLTCTVSGDSVSSSYWTWIRQPPGKGLEWIGYIYYSGSSNYNPSLKSRATISVDTSKNQFSLKLSSVTAADTAVYYCAREGNVDHTMIFDYWGQGTLVTVSS VL: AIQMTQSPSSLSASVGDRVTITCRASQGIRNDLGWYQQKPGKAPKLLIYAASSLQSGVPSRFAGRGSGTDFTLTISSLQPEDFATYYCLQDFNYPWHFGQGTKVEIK ?
Reply: 0.00261 s⁻¹
